The following variants are shown together with reported protein stability index values.
B1: TRIM35 (parent)
chain: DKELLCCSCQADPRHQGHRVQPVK

# Variants of: B1
# method.description: protein stability index of a GFP-peptide fusion (GPS, HEK-293T) (PSI 1-6); higher = more stable;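 further: lentivirally expressed fusions sorted by FACS into six bins by GFP to DsRed ratio, PSI derived from sequencing read proportions per bin multiplied by bin number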
# protocol.conditions: c terminus: a fixed tail appended
The response must contain the number and no unit.

// known answers, use as guide
G17A	3.19
V20R	3.5
A11V	3.13
C9M	4.03

Item `V20G` has what recorded protein stability index?
4.15

Reported protein stability index for `Q16C` : what is it?
4.54

Fill blank: measured protein stability index of the variant `C6R` is ____.
3.54
